System: HT29 RNF43 G659fs (RNF43 659mut, CRISPR-edited)
ASSAY PROCEDURE: cell viability activity relative to DMSO (negative = inhibition); higher = more viable cells (less growth inhibition)
CONDITION DETAILS: 5 µM; 96 h
Classes based on cell viability activity: c1: < -90%; c2: ≥ -90% and < -60%; c3: ≥ -60%

>>> print(df.to_string())
                                   molecule  category
0  Nc1ncnc2c1c(-c1cccc(OCc3ccccc3)c1)cn2C1CC(CN2CCC2)C1 (centres undefined)        c3
1  Cc1ccccc1N(C)C(=O)c1ccc([S+]([O-])c2nccs2)c([N+](=O)[O-])c1 (centres undefined)        c3
2      O=[N+]([O-])c1ccc2c(c1)S(=O)(=O)C=C2        c1
3  CCN(CC)CCCCNc1ncc2cc(-c3c(Cl)cccc3Cl)c(NC(=O)NC(C)(C)C)nc2n1        c3
4  Cc1cccc(-c2[nH]c(C(C)(C)C)nc2-c2ccc3c(c2)OCO3)n1        c2
5  CC(C)C[C@H](NC(=O)[C@@H](NC(=O)c1cccc(-c2ccccc2)n1)[C@@H](C)O)B(O)O        c1
6  COc1ccccc1S(=O)(=O)Nc1ccc2c(c1)CN(C)C(=O)N2        c3
7  CCS(=O)(=O)Nc1ccc2[nH]c(O)c(C(=Nc3ccc(CN4CCCCC4)cc3)c3ccccc3)c2c1        c2
